Please respond with reported percent inhibition of Factor 7 mRNA, relative to untreated control cells for every item in the list.
# Tested on: human Factor 7 mRNA
# TEST_SUMMARY: Dose-dependent antisense inhibition of human Factor 7 in HepB3 cells, transfection with electroporation
# Type: cell-based
# CONDITION_CONTEXT: 25 μM, 16 hours (Example 8, Table 16)
# Description: The gapmers were also transfected via electroporation and their dose-dependent inhibition of human Factor 7 mRNA was measured. […] After a treatment period of approximately 16 hours, RNA was isolated from the cells and Factor 7 mRNA levels were measured by quantitative real-time PCR. […] Factor 7 mRNA levels were adjusted according to total RNA content, as measured by RIBOGREEN®. […]
In the oligonucleotide strings, read from the 5' end, every base follows the letter of its sugar. An asterisk marks phosphorothioate; unmarked linkages are phosphodiester. Other units and linkages are bracketed, terminal groups are in braces. A string of capitals states the bases alone. e = 2'-O-(2-methoxyethyl) (MOE); [5mC] = 5-methylcytosine; d = 2'-deoxy (DNA)
A bare number is not enough; add the unit after it.

Some substances with known percent inhibition of Factor 7 mRNA, relative to untreated control cells results, for comparison:
422087 (antisense e[5mC]*eA*eT*eG*e[5mC]*dA*dT*dG*dG*dT*dG*dA*dT*dG*d[5mC]*eT*eT*e[5mC]*eT*eG) [compound 422087] | 75%
422086 (antisense eT*eG*e[5mC]*eA*eT*dG*dG*dT*dG*dA*dT*dG*d[5mC]*dT*dT*e[5mC]*eT*eG*eA*eA) [compound 422086] | 82%
422142 (antisense eG*eA*eG*eT*eT*d[5mC]*dT*dG*d[5mC]*dA*dG*dG*dA*dG*d[5mC]*eG*eG*e[5mC]*e[5mC]*eT) [compound 422142] | 67%
422296 (antisense e[5mC]*e[5mC]*dG*dA*dG*dT*dT*d[5mC]*dT*dG*d[5mC]*dA*dG*dG*dA*eG*e[5mC]*eG*eG*e[5mC]) [compound 422296] | 78%
407935 (antisense eA*eT*eG*e[5mC]*eA*dT*dG*dG*dT*dG*dA*dT*dG*d[5mC]*dT*eT*e[5mC]*eT*eG*eA) [compound 407935] | 90%

// each listed substance needs a value for percent inhibition of Factor 7 mRNA, relative to untreated control cells
1. 422150 (antisense eG*e[5mC]*eA*dT*dG*dG*dT*dG*dA*dT*dG*d[5mC]*dT*dT*d[5mC]*dT*dG*eA*eA*eT) [compound 422150]
2. 422130 (antisense eG*e[5mC]*e[5mC]*eT*eG*dA*dG*dG*d[5mC]*d[5mC]*dA*dG*d[5mC]*dA*dG*eA*eT*e[5mC]*eA*e[5mC]) [compound 422130]
3. 407939 (antisense eT*eG*e[5mC]*eA*eG*d[5mC]*d[5mC]*d[5mC]*dG*dG*d[5mC]*dA*d[5mC]*d[5mC]*d[5mC]*eA*eG*e[5mC]*eG*eA) [compound 407939]
4. 422292 (antisense eG*eT*dT*d[5mC]*dT*dG*d[5mC]*dA*dG*dG*dA*dG*d[5mC]*dG*dG*e[5mC]*e[5mC]*eT*eA*eA) [compound 422292]
5. 422183 (antisense eG*e[5mC]*eG*d[5mC]*d[5mC]*dA*d[5mC]*d[5mC]*d[5mC]*dG*d[5mC]*d[5mC]*dG*dG*d[5mC]*dT*d[5mC]*eT*eG*e[5mC]) [compound 422183]

[A]
67%
68%
73%
75%
50%

[Q] Please report percent inhibition of Factor 7 mRNA, relative to untreated control cells with human Factor 7 mRNA for item 422229 (antisense eA*eT*dG*d[5mC]*dA*dT*dG*dG*dT*dG*dA*dT*dG*d[5mC]*dT*eT*e[5mC]*eT*eG*eA) [compound 422229] .
[A] 79%

---

# Test system: human Factor 7 mRNA
# TEST_SUMMARY: Antisense inhibition of human Factor 7 mRNA in HepB3 cells, lipofectin, 50 nM, real-time RT-PCR
# Type: cell-based
# CONDITION_CONTEXT: HepB3 cells; gapmers targeted to nucleobases 11830 to 11869 of SEQ ID NO: 1 (Table 9)
In the oligonucleotide strings, read from the 5' end, every base follows the letter of its sugar. An asterisk marks phosphorothioate; unmarked linkages are phosphodiester. Other units and linkages are bracketed, terminal groups are in braces. A string of capitals states the bases alone. e = 2'-O-(2-methoxyethyl) (MOE); [5mC] = 5-methylcytosine; d = 2'-deoxy (DNA)
PROPERTY_MEASURED: % Inhibition of human Factor 7 mRNA levels (%)
Give bare numbers, in %.

Check out these entries, answers already filled in.
422106 (antisense e[5mC]*eT*eG*eG*e[5mC]*dT*dG*dA*dG*dG*dA*dG*dA*d[5mC]*dA*eA*eT*eG*eG*eT) [compound 422106] | 32
422154 (antisense eT*e[5mC]*eA*dG*dG*dG*d[5mC]*dT*dG*dG*dT*dT*dT*dT*dG*dG*dA*eG*eG*eA) [compound 422154] | 31

We now examine a further substance.
[Q] Supply reported % Inhibition of human Factor 7 mRNA levels belonging to this substance: 422164 (antisense eG*eA*eG*dA*d[5mC]*dA*dA*dT*dG*dG*dT*d[5mC]*dA*dG*dG*dG*d[5mC]*eT*eG*eG) [compound 422164]
[A] 64

---

# Test system: human Factor 7 mRNA
# TEST_SUMMARY: Antisense inhibition of human Factor 7 mRNA in HepB3 cells, lipofectin, 50 nM, real-time RT-PCR
# Assay type: cell-based
# CONDITION_CONTEXT: Example 1; HepB3 cells, lipofectin, 50 nM, ~24 h, relative to untreated control cells
# Experimental: Antisense oligonucleotides targeted to a Factor 7 nucleic acid were tested for their effects on Factor 7 mRNA in vitro. […] After a treatment period of approximately 24 hours, RNA was isolated from the cells and Factor 7 mRNA levels were measured by real-time RT-PCR, as described herein. Factor 7 mRNA levels were adjusted according to total RNA content as measured by RIBOGREEN®. […]
In the oligonucleotide strings, read from the 5' end, every base follows the letter of its sugar. An asterisk marks phosphorothioate; unmarked linkages are phosphodiester. Other units and linkages are bracketed, terminal groups are in braces. A string of capitals states the bases alone. e = 2'-O-(2-methoxyethyl) (MOE); [5mC] = 5-methylcytosine; d = 2'-deoxy (DNA)
PROPERTY_MEASURED: % Inhibition (human Factor 7 mRNA) (%)
Answers are plain numbers, in %.

Solved entries:
407647 (antisense eG*e[5mC]*eA*eG*e[5mC]*d[5mC]*dG*dT*dT*dT*dA*dT*dT*dG*dT*eG*eA*eA*eG*e[5mC]) [compound 407647] | 83
407925 (antisense eG*eA*eA*eT*eA*dT*dA*dT*dG*dG*dG*dA*dT*dT*dT*eG*eG*eT*eG*e[5mC]) [compound 407925] | 64
407658 (antisense eG*e[5mC]*eT*eT*eG*d[5mC]*d[5mC]*dG*dG*dA*dG*dT*d[5mC]*dT*dG*eA*eG*eT*eG*eG) [compound 407658] | 16
407919 (antisense eT*e[5mC]*eG*eA*eT*dG*dT*dA*d[5mC]*dT*dG*dG*dG*dA*dG*eA*e[5mC]*e[5mC]*e[5mC]*eT) [compound 407919] | 84
407610 (antisense eA*eG*eG*eG*eA*dG*dG*d[5mC]*dA*dG*dA*dA*dG*d[5mC]*dA*eG*eA*eT*eA*eT) [compound 407610] | 31

[Q] Under human Factor 7 mRNA, report % Inhibition (human Factor 7 mRNA) for 407600 (antisense eT*eG*eA*eA*eG*d[5mC]*d[5mC]*d[5mC]*dA*dA*dG*d[5mC]*dA*dG*dA*eA*eG*eG*e[5mC]*eA) [compound 407600]
[A] 61

---

Can you tell me percent inhibition of Factor 7 mRNA, 6.25 nM for the items I'm about to list?
# System: human Factor 7 mRNA
# TEST_SUMMARY: Dose-dependent antisense inhibition of human Factor 7 in HepB3 cells, transfection with lipofectin
# Type: cell-based
# CONDITION_CONTEXT: Example 5; HepB3, lipofectin, 6.25 nM, ~16 h
In the oligonucleotide strings, read from the 5' end, every base follows the letter of its sugar. An asterisk marks phosphorothioate; unmarked linkages are phosphodiester. Other units and linkages are bracketed, terminal groups are in braces. A string of capitals states the bases alone. e = 2'-O-(2-methoxyethyl) (MOE); [5mC] = 5-methylcytosine; d = 2'-deoxy (DNA)
One number for each entry, in %.

# annotated cases, reported percent inhibition of Factor 7 mRNA, 6.25 nM shown
407643 (antisense e[5mC]*eA*e[5mC]*eA*e[5mC]*dA*dT*dG*dG*dA*dG*dT*d[5mC]*dA*dG*e[5mC]*eA*eT*e[5mC]*eG) [compound 407643] | 36
407935 (antisense eA*eT*eG*e[5mC]*eA*dT*dG*dG*dT*dG*dA*dT*dG*d[5mC]*dT*eT*e[5mC]*eT*eG*eA) [compound 407935] | 38
416438 (antisense e[5mC]*eA*eG*eG*eA*dG*d[5mC]*d[5mC]*d[5mC]*d[5mC]*d[5mC]*dA*dT*dT*d[5mC]*eT*eG*eG*e[5mC]*eA) [compound 416438] | 11
416477 (antisense e[5mC]*eA*eG*e[5mC]*e[5mC]*dT*dG*dA*dG*dG*d[5mC]*d[5mC]*dA*dG*d[5mC]*eA*eG*eA*eT*e[5mC]) [compound 416477] | 21

Note: attention shifts to another entry.
[Q] Please indicate percent inhibition of Factor 7 mRNA, 6.25 nM recorded for 416472 (antisense e[5mC]*eA*eG*e[5mC]*e[5mC]*dT*dT*dG*dG*d[5mC]*dT*dT*dT*d[5mC]*dT*e[5mC]*eT*e[5mC]*e[5mC]*eA) [compound 416472]
[A] 16
